Please go through the items and note down their koff.
# ASSAY SYSTEM: recombinant human CD200 Fc Chimera (human) (UniProt P41217)
# TEST NAME: SPR (Biacore 3000), CD200-Fc captured by anti-human Fc on CM5, Fab injected, 1:1 Langmuir

{"BINDER": "TPP-131 (Fab, V domains shown) VH: QMQLVQSGAEVKKTGSSVKVSCKASGYSFTDYIILWVRQAPGQALEWMGHIDPYYGSSNYNLKFKGRVTITRDRSMSTAYMELSSLRSEDTAMYYCARSKRDYFDYWGQGTLVTVSS VL: DIQMTQSPSSLSASVGDRVTITCKASQDINSYLSWFQQKPGKAPKSLIYRANRLVDGVPSRFSGSGSGTDFTLTISSLQPEDFATYYCLQYDEFPYTFGQGTKLEIK", "koff": "0.00235 s⁻¹"}

Dear colleague, I am looking for the recorded koff of the following binder: TPP-139 (Fab, V domains shown) VH: QVQLVQSGSELKKPGASVKVSCKASGYSFTDYIILWVRQAPGQGLEWMGHIDPYYGSSNYNLKFKGRFVFSLDTSVSTAYLQISSLKAEDTAVYYCARSKRDYFDYWGQGTLVTVSS VL: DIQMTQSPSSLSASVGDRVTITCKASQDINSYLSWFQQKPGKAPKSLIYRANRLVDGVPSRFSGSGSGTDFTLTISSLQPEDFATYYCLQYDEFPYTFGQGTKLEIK
0.00368 s⁻¹
